Tested on: U251 CNS
Outcome codes: Y = active, N = inactive

MOLECULE	DISCRETE_LABEL
COc1ccc(-c2nnc(COc3ccc(NC(=O)Nc4ccc(Cl)c(C(F)(F)F)c4)cc3F)o2)cc1	N
O=S1(=O)N(CCNc2nccc(-c3c(-c4cccc(O)c4)nc4sccn34)n2)CCN1Cc1ccccc1	N
COc1ccc(-n2cc(-c3cc(OC)c(OC)c(OC)c3)[nH]c2=O)cc1Cl	N
COC(=O)[C@H](Cc1c[nH]c2ccccc12)NC(=O)[C@@H](OC)[C@@H]1Cc2cc3cc(OC4CC(OC5CC(O)C(O)C(C)O5)C(O)C(C)O4)c(C)c(O)c3c(O)c2C(=O)[C@H]1OC1CC(OC2CC(OC3CC(C)(O)C(O)C(C)O3)C(O)C(C)O2)C(O)C(C)O1 (stereo not given in full)	Y
c1cc[c]([Pb]([c]2ccccc2)[c]2ccccc2)cc1	N
COc1cc2c3c(n(CCNCCCNCCn4c5c(c6cc(OC)c(OC)cc6c4=O)C(=O)c4ccccc4-5)c(=O)c2cc1OC)-c1ccccc1C3=O	Y
CCOC(=O)c1c(C)nc2c(c1N)/C(=C/c1ccc(OC)cc1)C(=O)N2Cc1ccc(F)cc1	Y
C/C=C1/C(=C/c2[nH]c(/C=c3\[nH]/c(=C/C4=NC(=O)C(CC)=C4C)c(C)c3CCC(=O)O)c(CCC(=O)O)c2C)NC(=O)C1C (stereo not given)	N
O=C(O)[C@@H]1CCCCN1Cc1cc2cc3c(cc2c2cc(OCc4ccccc4)ccc12)OCO3	N
COc1ccccc1Cn1cc2c(c1-c1ccccc1)CCc1cnoc1-2	N

Where do the numbers come from? From PubChem BioAssay (NCI).
